// read-out pIC50, gathered for human ACC2 (Homo sapiens (Human), UniProt O00763) from published studies
pIC50: −log10 of the molar value.
attribute-measured: pIC50

> print(dat)
                                   compound  attribute.measured  readout.value
1  CC(C)C(=O)N[C@@H](C)c1ccc(C2CN(c3ccc(OCC4CC4)cc3)C2)cc1               pIC50           5.75
2  COc1c(OCC(C)C)ccc2c1CCN(Cc1ccc([C@H](C)NC(=O)C3CC3)cc1)C2               pIC50           6.99
3  CCOc1ccc(C#Cc2ccc(C(C)C(=O)Nc3ncco3)cc2)cc1 (stereo not shown)               pIC50           5.48
4  C[C@H](NC(=O)Cn1cncn1)c1ccc(C2CN(c3ccc(OCC4CC4)cc3)C2)cc1               pIC50           5.78

* * *

// read-out IC50, gathered for UniProt O00763 from published studies
attribute-measured: IC50 (nM)

> print(dat)
                                   compound  unit.descriptor  bound.sign  readout.value
1  COc1ccc(F)cc1[C@H](Cn1c(=O)n([C@@]2(C)CCNC2=O)c(=O)c2c(C)c(-n3nccn3)sc21)OCCO               nM           >           1000
2  CCCOc1ccc(C#Cc2ccc(C(C)(C)C(=O)NC3CC3)cc2)cc1               nM           =            600
3  CC(Cc1ccc(C#Cc2cnc(NCc3ccccc3)nc2)cc1)NC(=O)C1CC1 (stereo not drawn)               nM           =            200
4  CC(=O)NC(C)Cc1ccc(C#Cc2cnc(N(C)C)nc2)cc1 (stereo not drawn)               nM           =           1200
5  C=C1CCN(c2ncc(C#Cc3ccc(CC(C)NC(C)=O)cc3)cn2)CC1 (stereo not drawn)               nM           =             80
6  COCCC1CCCC2(C1)OC(=O)C(c1cc(-c3ccc(Cl)cc3)ccc1Cl)=C2O (stereo not drawn)               nM           =          10000

* * *

// read-out IC50, gathered for human ACC2 (Homo sapiens (Human), UniProt O00763) from published studies
attribute-measured: IC50

> print(dat)
                                    compound                          target.or.system  attribute.measured  readout.value
 1  Cc1cc(C)c(-c2ccc(Cl)cc2)cc1C1=C(O)CC(C)(C)CC1=O  human ACC2 (Homo sapiens (Human), UniProt O00763)                IC50        5340 nM
 2  C[C@H](NC(=O)c1cnn(C)c1N)c1ccc(O[C@@H]2CCN(c3ccc(OCC4CC4)cc3)C2)cc1  human ACC2 (Homo sapiens (Human), UniProt O00763)                IC50          65 nM
 3  C[C@H](NC(=O)C1CC1)c1ccc(O[C@@H]2CCN(c3ccc(OCC4CC4)cc3)C2)cc1  human ACC2 (Homo sapiens (Human), UniProt O00763)                IC50         373 nM
 4  CC(=O)N[C@@H](C)c1ccc(CN2Cc3ccc(OCC4CC4(F)F)cc3C(F)C2)cc1 (stereo partly drawn)  human ACC2 (Homo sapiens (Human), UniProt O00763)                IC50          16 nM
 5  CC(=O)NC(C)Cc1ccc(C#Cc2cnc(N[C@H]3CCc4ccccc43)nc2)cc1 (stereo partly drawn)  human ACC2 (Homo sapiens (Human), UniProt O00763)                IC50         330 nM
 6  CCNC(=O)C(C)c1ccc(C#Cc2cnc(NCc3ccncc3)nc2)cc1 (stereo not drawn)  human ACC2 (Homo sapiens (Human), UniProt O00763)                IC50        7400 nM
 7  CCNC(=O)C(C)c1ccc(O[C@@H]2CCN(c3cccc(C(F)(F)F)c3)C2)cc1 (stereo partly drawn)  human ACC2 (Homo sapiens (Human), UniProt O00763)                IC50         224 nM
 8  CCCOc1cc(C#Cc2ccc(C(C)NC(C)=O)cc2)ccn1 (stereo not drawn)  human ACC2 (Homo sapiens (Human), UniProt O00763)                IC50         450 nM
 9  CCOc1ccc(C#Cc2ccc(CC(C)N(C)C(=O)CC)cc2)cc1 (stereo not drawn)  human ACC2 (Homo sapiens (Human), UniProt O00763)                IC50        4400 nM
10  C[C@H](NC(=O)[C@@H](C)O)c1ccc(OC2CCN(c3ccnc(OCC(F)F)c3)C2)cc1 (stereo partly drawn)  human ACC2 (Homo sapiens (Human), UniProt O00763)                IC50         784 nM
11  CCC(=O)Nc1nc(C)c(C(=O)N[C@@H](C)c2ccc(CN3CCc4cc(OCC5CC5(F)F)ccc4C3)cc2)s1 (stereo partly drawn)  human ACC2 (Homo sapiens (Human), UniProt O00763)                IC50          37 nM
12  COc1c(OCCC(F)F)ccc2c1CCN(Cc1ccc([C@H](C)NC(C)=O)cc1)C2  human ACC2 (Homo sapiens (Human), UniProt O00763)                IC50         141 nM
